Provide the reported yeast fitness of each item.
B1: tRNA (parent)
chain: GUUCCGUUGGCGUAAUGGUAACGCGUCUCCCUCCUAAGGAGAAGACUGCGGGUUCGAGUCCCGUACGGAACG

Variants of: B1
TEST METHOD NOTES: yeast fitness relative to wild type (ratio to wild type); higher = fitter; tRNA-Arg(CCU), competitive growth, 37 C, YPD
Variants at the floor of the assay were thinned out.
Lab note: jot down the number only; don't add units.

Dear colleague, I am looking for the recorded yeast fitness of the following variant: A42C C55U 0.744

Dear colleague, I am looking for the recorded yeast fitness of the following variant: U32C G48A A70U 0.783

Dear colleague, I am looking for the recorded yeast fitness of the following variant: U8A U26G 0.666

Dear colleague, I am looking for the recorded yeast fitness of the following variant: U28C U35A 0.578

Dear colleague, I am looking for the recorded yeast fitness of the following variant: A14C C27G C46G 0.619

Dear colleague, I am looking for the recorded yeast fitness of the following variant: U3C U19A A65G 0.796

Dear colleague, I am looking for the recorded yeast fitness of the following variant: A15C G63C 0.616

Dear colleague, I am looking for the recorded yeast fitness of the following variant: A15U C24U A43C 0.573

Dear colleague, I am looking for the recorded yeast fitness of the following variant: C34A A57U G67C 0.605

Dear colleague, I am looking for the recorded yeast fitness of the following variant: G41C G52C 0.527

Dear colleague, I am looking for the recorded yeast fitness of the following variant: C4A U53C G67C 0.537

Dear colleague, I am looking for the recorded yeast fitness of the following variant: C4U U26C G44A 0.569

Dear colleague, I am looking for the recorded yeast fitness of the following variant: G56C C62G 0.559

Dear colleague, I am looking for the recorded yeast fitness of the following variant: G39A G58A A69C 0.592

Dear colleague, I am looking for the recorded yeast fitness of the following variant: A40C A43G C61G C66U 0.683

Dear colleague, I am looking for the recorded yeast fitness of the following variant: C11U U64G 0.739

Dear colleague, I am looking for the recorded yeast fitness of the following variant: U19C A37G C49U A69C 0.51

Dear colleague, I am looking for the recorded yeast fitness of the following variant: A15G C30A A65C 0.609

Dear colleague, I am looking for the recorded yeast fitness of the following variant: G6A U19A 0.973

Dear colleague, I am looking for the recorded yeast fitness of the following variant: C5G U26A A69C 0.634

Dear colleague, I am looking for the recorded yeast fitness of the following variant: C11G C62G 0.642
